Data provenance: patent EP3807270B1

- Tested target: hERG channel (Homo sapiens)
- Construct: expressed in transfected cells; host or cells: CHO (Chinese hamster ovary)
- Sequence (Q12809 whole entry): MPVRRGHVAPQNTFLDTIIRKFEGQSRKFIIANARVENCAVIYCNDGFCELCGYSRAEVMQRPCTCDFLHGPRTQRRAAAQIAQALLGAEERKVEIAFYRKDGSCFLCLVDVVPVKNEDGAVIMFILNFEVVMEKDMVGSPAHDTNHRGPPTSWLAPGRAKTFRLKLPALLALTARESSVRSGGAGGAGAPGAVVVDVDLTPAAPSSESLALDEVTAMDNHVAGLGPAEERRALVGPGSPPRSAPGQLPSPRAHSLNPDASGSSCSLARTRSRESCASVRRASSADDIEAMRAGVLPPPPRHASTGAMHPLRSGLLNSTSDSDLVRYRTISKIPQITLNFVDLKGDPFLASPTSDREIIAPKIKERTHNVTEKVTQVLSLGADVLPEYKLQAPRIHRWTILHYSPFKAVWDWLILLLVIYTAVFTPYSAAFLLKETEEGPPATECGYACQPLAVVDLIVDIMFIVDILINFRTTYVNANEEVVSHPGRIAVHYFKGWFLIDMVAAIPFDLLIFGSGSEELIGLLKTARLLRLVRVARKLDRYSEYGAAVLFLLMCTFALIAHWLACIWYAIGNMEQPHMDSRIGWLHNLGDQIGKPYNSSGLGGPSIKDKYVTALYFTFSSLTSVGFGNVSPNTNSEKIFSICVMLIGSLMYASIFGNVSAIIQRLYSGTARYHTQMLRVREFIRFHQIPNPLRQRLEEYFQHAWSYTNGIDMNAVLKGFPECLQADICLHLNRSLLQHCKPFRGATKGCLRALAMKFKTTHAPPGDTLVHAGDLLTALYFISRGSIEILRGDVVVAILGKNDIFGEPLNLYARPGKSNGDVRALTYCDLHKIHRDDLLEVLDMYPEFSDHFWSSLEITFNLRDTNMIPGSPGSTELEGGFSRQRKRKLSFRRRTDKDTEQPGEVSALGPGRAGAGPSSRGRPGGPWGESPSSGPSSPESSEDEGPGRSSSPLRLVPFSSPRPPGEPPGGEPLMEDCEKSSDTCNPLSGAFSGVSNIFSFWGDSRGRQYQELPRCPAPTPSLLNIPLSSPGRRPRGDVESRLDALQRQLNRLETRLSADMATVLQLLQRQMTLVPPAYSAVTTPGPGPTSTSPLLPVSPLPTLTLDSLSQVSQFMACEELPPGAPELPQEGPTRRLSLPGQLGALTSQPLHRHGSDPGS
- Assay name: hERG channel inhibition assay (patch-clamp, CHO hERG cells)
- Format: cell-based
- Experimental context: safety ratio; TLR7 IC50 of ER compounds from Table 1
Recorded endpoint: hERG IC20 / TLR7 IC50

INSERT INTO results (molecule, test_value) VALUES
  ('C[C@@H]1CN(c2ccc(C#N)c3ncccc23)C[C@H](CN2CCN(c3cnc4c(c3)CNC4)CC2)O1', '>289.9'),
  ('C[C@@H]1CN(c2ccc(C#N)c3ncccc23)C[C@H](CN2CCN(c3cnc4c(c3)CCNC4)CC2)O1', '>170.6');

Proceeding to the next molecule to report its hERG IC20 / TLR7 IC50.
Any idea what its hERG IC20 / TLR7 IC50 is? The molecule is CC1NCc2ncc(N3CCN(C[C@H]4CN(c5ccc(C#N)c6ncccc56)C[C@@H](C)O4)CC3)cc21 (stereo partly drawn)
>354.6

---

- Tested target: human TLR8 (Homo sapiens)
- Sequence (Q9NR97 27-1041): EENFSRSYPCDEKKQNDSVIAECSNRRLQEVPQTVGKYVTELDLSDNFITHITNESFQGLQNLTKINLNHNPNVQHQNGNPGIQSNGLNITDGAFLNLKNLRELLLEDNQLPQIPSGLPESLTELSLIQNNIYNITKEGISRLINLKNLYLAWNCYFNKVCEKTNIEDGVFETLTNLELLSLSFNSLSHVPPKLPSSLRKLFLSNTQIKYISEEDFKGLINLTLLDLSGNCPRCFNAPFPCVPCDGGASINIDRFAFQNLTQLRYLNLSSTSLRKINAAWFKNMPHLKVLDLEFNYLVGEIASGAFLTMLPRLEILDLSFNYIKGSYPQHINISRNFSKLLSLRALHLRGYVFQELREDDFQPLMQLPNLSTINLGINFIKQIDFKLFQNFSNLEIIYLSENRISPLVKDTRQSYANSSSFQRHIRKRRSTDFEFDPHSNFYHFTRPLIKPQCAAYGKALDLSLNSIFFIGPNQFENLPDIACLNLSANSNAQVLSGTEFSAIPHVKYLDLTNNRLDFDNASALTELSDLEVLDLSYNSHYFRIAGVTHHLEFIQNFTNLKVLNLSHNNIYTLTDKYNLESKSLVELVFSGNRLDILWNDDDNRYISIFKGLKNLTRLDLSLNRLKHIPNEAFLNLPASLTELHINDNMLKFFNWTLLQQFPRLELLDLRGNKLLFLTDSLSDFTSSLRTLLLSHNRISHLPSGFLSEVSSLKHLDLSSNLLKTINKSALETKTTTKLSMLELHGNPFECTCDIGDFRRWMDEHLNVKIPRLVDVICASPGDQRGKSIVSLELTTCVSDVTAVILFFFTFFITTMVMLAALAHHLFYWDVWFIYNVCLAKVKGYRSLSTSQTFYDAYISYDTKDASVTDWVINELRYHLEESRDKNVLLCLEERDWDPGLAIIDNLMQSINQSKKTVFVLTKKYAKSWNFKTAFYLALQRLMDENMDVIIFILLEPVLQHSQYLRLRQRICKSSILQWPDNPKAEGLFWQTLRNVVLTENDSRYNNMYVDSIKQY
- Assay name: HEK293-Blue-hTLR-8 cells assay (SEAP reporter, R848 stimulation)
- Experimental context: HEK293-Blue-hTLR8 cells, R848, 20 hrs; read-out: HEK/hTLR8 IC50
Recorded endpoint: pIC50
Quick note: pIC50 values are minus log10 of concentrations in mol/L.

INSERT INTO results (compound, tested_target, test_value) VALUES
  ('C[C@@H]1CN(c2ccc(C#N)c3ncccc23)C[C@H](CN2CCN(c3ncc4c(n3)CNC4)CC2)O1 [Example 11]', 'human TLR8 (Homo sapiens)', 8.10),
  ('C[C@@H]1CN(c2ccc(C#N)c3ncccc23)C[C@H](CN2C[C@H]3CN(c4ccc5c(n4)CCNC5)CC[C@H]32)O1 (single isomer, unassigned) [Example 55]', 'human TLR8 (Homo sapiens)', 7.80),
  ('C[C@@H]1CN(c2ccc(C#N)c3ncccc23)C[C@H](CN2CCN(c3nccc4c3CCNC4)CC2)O1 [Example 62]', 'human TLR8 (Homo sapiens)', 7.85);

What does the record list as pIC50 for C[C@@H]1CN(c2ccc(C#N)c3ncccc23)C[C@H](CN2CCCN(c3ncc4c(n3)CCNC4)CC2)O1 [Example 39] ?
7.92

// query pIC50 value for entry COC1CNCc2ccc(N3CCN(C[C@H]4CN(c5ccc(C#N)c6ncccc56)C[C@@H](C)O4)CC3)cc21 (stereo partly shown) [Example 58]
7.82

Looking for the measured pIC50 of C[C@@H]1CN(c2ccc(C#N)c3ncccc23)C[C@H](CN2CCN(c3ccc4c(n3)[C@H](C)NC4)CC2)O1 (single isomer, unassigned) [Example 66] , can you help?
8.05

What pIC50 value was documented for this compound, C[C@@H]1CN(c2ccc(C#N)c3ncccc23)C[C@H](CN2CC3(C2)CN(c2cnc4c(c2)CCNC4)CCO3)O1 [Example 46] ?
8.05

---

Listed below: pIC50 values for each entry.
- Tested target: UniProt:Q9NYK1
- Sequence (Q9NYK1 27-1049): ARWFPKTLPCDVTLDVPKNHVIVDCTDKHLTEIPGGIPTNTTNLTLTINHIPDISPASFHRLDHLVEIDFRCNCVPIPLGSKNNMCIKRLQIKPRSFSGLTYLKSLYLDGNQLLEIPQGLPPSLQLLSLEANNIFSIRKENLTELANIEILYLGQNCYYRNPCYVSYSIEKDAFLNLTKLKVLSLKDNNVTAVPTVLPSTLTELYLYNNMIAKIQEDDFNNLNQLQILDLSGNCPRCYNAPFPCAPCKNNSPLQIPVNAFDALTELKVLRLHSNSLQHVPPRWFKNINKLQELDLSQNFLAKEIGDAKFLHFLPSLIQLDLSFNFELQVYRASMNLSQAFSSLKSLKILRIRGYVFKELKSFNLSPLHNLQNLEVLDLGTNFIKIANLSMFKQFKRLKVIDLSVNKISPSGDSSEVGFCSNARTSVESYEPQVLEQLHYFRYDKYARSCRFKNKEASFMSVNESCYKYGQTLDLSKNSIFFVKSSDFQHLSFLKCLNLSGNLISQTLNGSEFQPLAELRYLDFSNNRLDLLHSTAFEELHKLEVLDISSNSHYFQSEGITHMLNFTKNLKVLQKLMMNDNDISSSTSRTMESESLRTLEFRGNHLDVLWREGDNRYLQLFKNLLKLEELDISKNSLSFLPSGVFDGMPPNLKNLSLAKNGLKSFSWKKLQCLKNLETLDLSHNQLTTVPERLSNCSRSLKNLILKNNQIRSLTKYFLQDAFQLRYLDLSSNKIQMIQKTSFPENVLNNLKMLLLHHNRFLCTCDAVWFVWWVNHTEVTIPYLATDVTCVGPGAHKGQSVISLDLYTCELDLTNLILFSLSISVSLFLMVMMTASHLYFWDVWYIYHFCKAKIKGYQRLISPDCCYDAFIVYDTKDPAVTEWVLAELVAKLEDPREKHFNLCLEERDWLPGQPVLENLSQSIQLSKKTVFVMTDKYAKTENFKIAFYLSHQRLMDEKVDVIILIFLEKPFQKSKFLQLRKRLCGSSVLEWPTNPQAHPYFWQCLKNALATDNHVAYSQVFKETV
- Assay name: HEK293-Blue-hTLR-7 cells assay (SEAP reporter, R848 stimulation)
- Assay type: cell-based
- Parameters: host or cells: HEK293 (HEK-Blue)
- Experimental context: HEK293-Blue-hTLR7 cells, R848, 20 hrs; read-out: HEK/hTLR7 IC50
The meaning of pIC50 here: minus log10 of the concentration in molar units.

Answered cases to consult:
INSERT INTO assay_data (compound, test_value) VALUES
  ('C[C@@H]1CN(c2ccc(C#N)c3ncccc23)C[C@H](CN2CCN(c3cnc4c(c3)CNC4)CC2)O1', 7.46),
  ('C[C@@H]1CN(c2ccc(C#N)c3nccnc23)C[C@H](CN2CCN(c3ccc4c(n3)CN[C@H]4C)CC2)O1 (single isomer, unassigned)', 8.30);

Tell me the measured pIC50 of C[C@@H]1CN(c2ccc(C#N)c3ncccc23)C[C@H](CN2CC3(C2)CN(c2cnc4c(c2)CCNC4)CCO3)O1 , please.
7.92

Reported pIC50, compound C[C@@H]1CN(c2ccc(C#N)c3ncccc23)C[C@H](CN2CC3(C2)CN(c2cnc4c(n2)CCNC4)CCO3)O1 : ____
8.40
